EXPERIMENTAL SYSTEM: uPA (Homo sapiens, UniProt P00749)
TEST SUMMARY: biochemical
Type: biochemical
Parameters: purchased Sigma-Aldrich
EXPERIMENTAL SETUP: 15-min pre-incubation at 37° C, 250 μM S-2444, Tris pH 8.8; read-out: IC50 (nM) uPA
MEASURED QUANTITY: IC50
Field note: include the unit after the figure.

[
  {
    "MOLECULE": "CC(=O)Nc1ccc(OP(=O)(Oc2ccc(NC(C)=O)cc2)C(Cc2ccc(NC(=N)N)cc2)NC(=O)OCc2ccccc2)cc1 (centres unmarked)",
    "REPORTED": "4.2 nM"
  },
  {
    "MOLECULE": "N=C(N)Nc1ccc(CC(N)P(=O)(Oc2ccccc2)Oc2ccccc2)cc1 (centres unmarked) [Compound 34d]",
    "REPORTED": "1600 nM"
  },
  {
    "MOLECULE": "CCOC(=O)NC(Cc1ccc(NC(=N)N)cc1)P(=O)(Oc1ccccc1)Oc1ccccc1 (centres unmarked) [Compound 35c]",
    "REPORTED": "8 nM"
  },
  {
    "MOLECULE": "COC(=O)NC(Cc1ccc(NC(=N)N)cc1)P(=O)(Oc1ccccc1)Oc1ccccc1 (centres unmarked) [Compound 35a]",
    "REPORTED": "3.1 nM"
  }
]

Now for another entry.
Q. Tell me the measured IC50 of CC(=O)Nc1ccc(OP(=O)(Oc2ccc(NC(C)=O)cc2)C(Cc2ccc(NC(=N)N)cc2)NS(C)(=O)=O)cc1 (centres unmarked) , please.
A. 3.5 nM

* * *

Each item that follows carries a reported IC50.
EXPERIMENTAL SYSTEM: UniProtKB P00750
Sequence (P00750 36-562, species assumed): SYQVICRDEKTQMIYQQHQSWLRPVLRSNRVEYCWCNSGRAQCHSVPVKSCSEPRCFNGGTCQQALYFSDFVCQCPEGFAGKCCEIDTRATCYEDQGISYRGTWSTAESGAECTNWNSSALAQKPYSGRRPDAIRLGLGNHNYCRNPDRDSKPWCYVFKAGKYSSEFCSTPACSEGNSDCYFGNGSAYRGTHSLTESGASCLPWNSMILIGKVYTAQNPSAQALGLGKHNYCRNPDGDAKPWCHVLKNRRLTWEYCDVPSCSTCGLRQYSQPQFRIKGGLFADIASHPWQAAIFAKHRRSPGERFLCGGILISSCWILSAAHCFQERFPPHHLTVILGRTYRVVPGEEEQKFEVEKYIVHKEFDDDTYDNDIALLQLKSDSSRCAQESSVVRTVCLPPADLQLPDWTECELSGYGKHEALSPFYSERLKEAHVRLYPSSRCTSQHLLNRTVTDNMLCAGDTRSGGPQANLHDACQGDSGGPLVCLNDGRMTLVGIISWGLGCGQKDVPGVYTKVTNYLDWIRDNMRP
TEST SUMMARY: Selectivity: tPA inhibition, chromogenic substrate S-2288
Assay type: biochemical
EXPERIMENTAL SETUP: 1.25 mM substrate, Tris pH 8.3
Numbers only here, please. The scale is µM.

[
  {
    "MOLECULE": "N=C(N)Nc1ccc(CC(NC(=O)OCc2ccccc2)P(=O)(Oc2ccccc2)Oc2ccccc2)cc1 (stereo not shown)",
    "IC50 (µM)": 12
  }
]

Q. Tell me the measured IC50 of N=C(N)Nc1ccc(CC(NC(=O)c2ccccc2)P(=O)(Oc2ccccc2)Oc2ccccc2)cc1 (stereo not shown) , please.
A. 125

Q. Tell me the measured IC50 of CCOC(=O)NC(Cc1ccc(NC(=N)N)cc1)P(=O)(Oc1ccccc1)Oc1ccccc1 (stereo not shown) [Compound 35c] , please.
A. 57

Q. Tell me the measured IC50 of CS(=O)(=O)NC(Cc1ccc(NC(=N)N)cc1)P(=O)(Oc1ccccc1)Oc1ccccc1 (stereo not shown) , please.
A. 8

Q. Tell me the measured IC50 of CC(C)c1ccc(C(C)C)c(S(=O)(=O)NC(Cc2ccc(NC(=N)N)cc2)P(=O)(Oc2ccccc2)Oc2ccccc2)c1C(C)C (stereo not shown) , please.
A. 16

Q. Tell me the measured IC50 of CCC(NC(=O)OCc1ccccc1)(c1ccc(C(=N)N)cc1)P(=O)(Oc1ccccc1)Oc1ccccc1 (stereo not shown) , please.
A. 68

Q. Tell me the measured IC50 of CC(=O)Nc1ccc(OP(=O)(Oc2ccc(NC(C)=O)cc2)C(Cc2ccc(NC(=N)N)cc2)NC(=O)OCc2ccccc2)cc1 (stereo not shown) , please.
A. 7

* * *

EXPERIMENTAL SYSTEM: FXa (Homo sapiens, UniProt P00742)
Sequence (P00742 235-488 limits assumed): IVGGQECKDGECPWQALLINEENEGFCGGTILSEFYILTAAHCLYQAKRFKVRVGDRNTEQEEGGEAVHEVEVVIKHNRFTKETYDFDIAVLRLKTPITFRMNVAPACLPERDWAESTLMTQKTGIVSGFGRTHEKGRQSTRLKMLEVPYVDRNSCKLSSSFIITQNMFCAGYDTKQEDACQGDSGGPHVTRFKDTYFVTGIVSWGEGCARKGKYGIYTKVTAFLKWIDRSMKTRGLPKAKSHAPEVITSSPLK
Sequence (P00742 41-179 partner limits assumed): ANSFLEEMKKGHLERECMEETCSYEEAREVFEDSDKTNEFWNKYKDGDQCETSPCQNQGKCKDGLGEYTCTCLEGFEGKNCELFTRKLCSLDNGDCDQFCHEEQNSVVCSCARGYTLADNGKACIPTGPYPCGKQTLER
TEST SUMMARY: Selectivity: FXa inhibition, chromogenic substrate S-2772
Assay type: biochemical
MEASURED QUANTITY: IC50

[
  {
    "COMPOUND": "CS(=O)(=O)NC(Cc1ccc(NC(=N)N)cc1)P(=O)(Oc1ccccc1)Oc1ccccc1 (centres unmarked) [Compound 7g]",
    "IC50": "~250 µM"
  }
]

Now for another entry.
Q. Tell me the measured IC50 of N=C(N)Nc1ccc(CC(NC(=O)c2ccccc2)P(=O)(Oc2ccccc2)Oc2ccccc2)cc1 (centres unmarked) [Compound 7c] , please.
A. > 250 µM

* * *

EXPERIMENTAL SYSTEM: thrombin (Homo sapiens, UniProt P00734)
TEST SUMMARY: Selectivity: thrombin inhibition, chromogenic substrate S-2366
Assay type: biochemical
EXPERIMENTAL SETUP: 580 μM substrate, Tris pH 8.3; read-out: IC50 (μM) Thrombin
MEASURED QUANTITY: log10 of IC50 (log10 of the value in µM)
Plainly stated, the numbers are log10 of IC50 given in µM.

[
  {
    "COMPOUND": "CC(=O)NC(Cc1ccc(NC(=N)N)cc1)P(=O)(Oc1ccccc1)Oc1ccccc1 (stereo not drawn) [Compound 41]",
    "log10 of IC50": 1.51
  },
  {
    "COMPOUND": "CC(=O)Nc1ccc(OP(=O)(Oc2ccc(NC(C)=O)cc2)C(Cc2ccc(NC(=N)N)cc2)NC(=O)OCc2ccccc2)cc1 (stereo not drawn) [Compound 9b]",
    "log10 of IC50": -0.41
  },
  {
    "COMPOUND": "CCOC(=O)NC(Cc1ccc(NC(=N)N)cc1)P(=O)(Oc1ccccc1)Oc1ccccc1 (stereo not drawn) [Compound 35c]",
    "log10 of IC50": 0.58
  },
  {
    "COMPOUND": "N=C(N)Nc1ccc(CC(NC(=O)OCc2ccccc2)P(=O)(Oc2ccccc2)Oc2ccccc2)cc1 (stereo not drawn) [Compound 7b]",
    "log10 of IC50": 0.38
  },
  {
    "COMPOUND": "CC(=O)Nc1ccc(OP(=O)(Oc2ccc(NC(C)=O)cc2)C(Cc2ccc(NC(=N)N)cc2)NS(C)(=O)=O)cc1 (stereo not drawn) [Compound 9c]",
    "log10 of IC50": 0.37
  },
  {
    "COMPOUND": "CCC(NC(=O)OCc1ccccc1)(c1ccc(C(=N)N)cc1)P(=O)(Oc1ccccc1)Oc1ccccc1 (stereo not drawn) [Compound 8c]",
    "log10 of IC50": 1.23
  },
  {
    "COMPOUND": "N=C(N)c1ccc(CC(NC(=O)OCc2ccccc2)P(=O)(Oc2ccccc2)Oc2ccccc2)cc1 (stereo not drawn) [Compound 8b]",
    "log10 of IC50": 1.30
  },
  {
    "COMPOUND": "Cc1ccccc1S(=O)(=O)NC(Cc1ccc(NC(=N)N)cc1)P(=O)(Oc1ccccc1)Oc1ccccc1 (stereo not drawn) [Compound 7d]",
    "log10 of IC50": 1.08
  }
]

Now for another entry.
Q. Tell me the measured log10 of IC50 of N=C(N)c1ccc(C(NC(=O)OCc2ccccc2)P(=O)(Oc2ccccc2)Oc2ccccc2)cc1 (stereo not drawn) [Compound 8a] , please.
A. -0.54

* * *

EXPERIMENTAL SYSTEM: plasmin (Homo sapiens, UniProt P00747)
Construct: uPA mediates the proteolytic cleavage of plasminogen to give plasmin
Sequence (P00747 581-810 limits assumed, species assumed): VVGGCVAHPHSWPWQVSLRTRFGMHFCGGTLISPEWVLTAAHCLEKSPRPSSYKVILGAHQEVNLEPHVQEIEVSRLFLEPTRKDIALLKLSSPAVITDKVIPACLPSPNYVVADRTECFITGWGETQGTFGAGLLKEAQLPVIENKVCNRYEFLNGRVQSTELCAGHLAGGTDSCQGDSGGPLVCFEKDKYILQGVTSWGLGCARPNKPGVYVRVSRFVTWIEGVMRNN
Sequence (P00747 97-580 partner limits assumed, species assumed): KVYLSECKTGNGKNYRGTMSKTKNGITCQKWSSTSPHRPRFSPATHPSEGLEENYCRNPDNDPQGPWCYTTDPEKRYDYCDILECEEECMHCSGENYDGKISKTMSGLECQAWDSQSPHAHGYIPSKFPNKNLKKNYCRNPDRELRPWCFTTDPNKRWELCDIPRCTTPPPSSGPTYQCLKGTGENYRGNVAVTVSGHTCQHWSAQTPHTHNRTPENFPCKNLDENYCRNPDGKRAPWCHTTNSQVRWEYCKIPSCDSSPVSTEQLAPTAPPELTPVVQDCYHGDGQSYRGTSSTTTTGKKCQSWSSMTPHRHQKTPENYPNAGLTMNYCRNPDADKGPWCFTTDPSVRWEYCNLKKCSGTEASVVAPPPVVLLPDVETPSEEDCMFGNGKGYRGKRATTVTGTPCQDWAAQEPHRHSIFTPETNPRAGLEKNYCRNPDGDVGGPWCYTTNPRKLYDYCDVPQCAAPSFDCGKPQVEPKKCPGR
TEST SUMMARY: Selectivity: plasmin inhibition, chromogenic substrate S-2366
Format: biochemical
EXPERIMENTAL SETUP: 580 μM substrate, Tris pH 7.4; read-out: IC50 (μM) Plasmin
MEASURED QUANTITY: log10(IC50) (log10 of the value in µM)
Plainly stated, the numbers are log10 of IC50 given in µM.

// solved cases for log10(IC50) follow
[
  {
    "COMPOUND": "CC(=O)Nc1ccc(OP(=O)(Oc2ccc(NC(C)=O)cc2)C(Cc2ccc(NC(=N)N)cc2)NC(=O)OCc2ccccc2)cc1 (stereo not drawn) [Compound 9b]",
    "log10(IC50)": -0.05
  },
  {
    "COMPOUND": "CCC(NC(=O)OCc1ccccc1)(c1ccc(C(=N)N)cc1)P(=O)(Oc1ccccc1)Oc1ccccc1 (stereo not drawn) [Compound 8c]",
    "log10(IC50)": 0.79
  },
  {
    "COMPOUND": "N=C(N)c1ccc(CC(NC(=O)OCc2ccccc2)P(=O)(Oc2ccccc2)Oc2ccccc2)cc1 (stereo not drawn) [Compound 8b]",
    "log10(IC50)": 0.08
  },
  {
    "COMPOUND": "N=C(N)Nc1ccc(CC(NC(=O)c2ccccc2)P(=O)(Oc2ccccc2)Oc2ccccc2)cc1 (stereo not drawn) [Compound 7c]",
    "log10(IC50)": 1.15
  },
  {
    "COMPOUND": "CS(=O)(=O)NC(Cc1ccc(NC(=N)N)cc1)P(=O)(Oc1ccccc1)Oc1ccccc1 (stereo not drawn) [Compound 7g]",
    "log10(IC50)": 1.04
  }
]

Q. // fetch plasmin (Homo sapiens, UniProt P00747) log10(IC50) for CC(=O)NC(Cc1ccc(NC(=N)N)cc1)P(=O)(Oc1ccccc1)Oc1ccccc1 (stereo not drawn) [Compound 41]
A. 1.76

Q. // fetch plasmin (Homo sapiens, UniProt P00747) log10(IC50) for Cc1ccccc1S(=O)(=O)NC(Cc1ccc(NC(=N)N)cc1)P(=O)(Oc1ccccc1)Oc1ccccc1 (stereo not drawn) [Compound 7d]
A. 1.23

Q. // fetch plasmin (Homo sapiens, UniProt P00747) log10(IC50) for CC(=O)Nc1ccc(OP(=O)(Oc2ccc(NC(C)=O)cc2)C(Cc2ccc(NC(=N)N)cc2)NS(C)(=O)=O)cc1 (stereo not drawn) [Compound 9c]
A. 0.30
